- Method: NCI Yeast Anticancer Drug Screen. Data for the mlh1 rad18 strain (AID 175)
- Condition parameters: S. cerevisiae mlh1 rad18 strain growth inhibition; at 50.0 µM; hits give high values
Compounds without any hit were thinned out: in the full panel of roughly 79,000, 15% have a hit.
Measured parameter: growth inhibition (%)
Use % as the unit, but write only the number.

Observe how each entry below is paired with its result.
- Compound: "CC[C@@]1(O)C[C@H](OC2CC(N)C(O)C(C)O2)c2c(O)c3c(c(O)c2[C@H]1C(=O)OC)C(=O)c1cccc(O)c1C3=O (some centres not stated)"
  growth inhibition, %: 80.2
- Compound: "S=C(S)N1CCOCC1"
  growth inhibition, %: 19.5
- Compound: "CC(C)CC(NC(=O)C(N)C(C)C)C(=O)NC(CCCCN)C(=O)Nc1ccc(N(CCCl)CCCl)cc1 (configuration not stated)"
  growth inhibition, %: -44.7

Problem: Provide growth inhibition value for the following compound: `O=C(CI)c1ccc[nH]1`
Result: 99.3

Problem: Provide growth inhibition value for the following compound: `CN(C)c1ccc(/C=C/c2cc[n+]3ccsc3n2)cc1`
Result: 97.2

* * *

- Method: NCI Yeast Anticancer Drug Screen. Data for the sgs1 strain (AID 173);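 also: 0% = growth of vehicle-only control cultures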
- Condition parameters: S. cerevisiae sgs1 mutant, at 33.0 µM, hits give high values
The panel holds about 79,000 compounds, 15% with a hit somewhere; the sample as a whole holds those more often.
Known growth inhibition of a selection of compounds
Use % as the unit, but write only the number.

Observe how each entry below is paired with its result.
- Compound: "CC1CCCN(CCc2ccccc2)CC1 (configuration not stated)"
  Observed value: 23
- Compound: "COC(COC(=O)N1CCN(C=O)CC1)C1=C(N2CC2)C(=O)C(C)=C(N2CC2)C1=O (configuration not stated)"
  Observed value: 40
- Compound: "Nc1ccc(Cl)cc1C(=O)c1ccccc1"
  Observed value: 63
- Compound: "C[C@@]12CCC(=O)C=C1CC[C@H]1C2=CC[C@]2(C)C1CC[C@@]2(C)O (some centres not stated)"
  Observed value: 72

Problem: Provide growth inhibition value for the following compound: `O=c1oc2ccccc2c(O)c1C(c1ccc2c(c1)Cc1ccccc1-2)c1c(O)c2ccccc2oc1=O`
Result: 83

Problem: Provide growth inhibition value for the following compound: `N#CC(C#N)=Cc1ccc(C#N)cc1`
Result: -2

Problem: Provide growth inhibition value for the following compound: O=C(O)C1C2c3ccccc3C(c3ccccc32)C1C(=O)O (configuration not stated)
Result: 5

Problem: Provide growth inhibition value for the following compound: `COc1cc2ccccc2c2cc([N+](=O)[O-])oc12`
Result: 89

Problem: Provide growth inhibition value for the following compound: `CC[PH+](CC)CC.CC[PH+](CC)CC.[Au]`
Result: 90

Problem: Provide growth inhibition value for the following compound: `C/C(=N\O)c1ccc2ccc3ccccc3c2c1`
Result: 80

Problem: Provide growth inhibition value for the following compound: `O=C1C=CC(=O)C1(Br)Br`
Result: 99

Problem: Provide growth inhibition value for the following compound: `Oc1c(Br)cc(Br)cc1Br`
Result: 37

* * *

- Method: NCI Yeast Anticancer Drug Screen. Data for the rad50 strain (AID 155);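 also: 0% = growth of vehicle-only cultures of the same strain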
- Condition parameters: S. cerevisiae rad50 strain growth inhibition; at 33.0 µM; hits give high values
This is part of a sample that, as a whole, favours compounds with a hit. Of some 79,000 tested, about 15% had one in any assay.
Assign criterion met to entries whose growth inhibition meets or exceeds 90%; assign criterion not met to the rest.

Use these answered entries as a reference point.
- Compound: "c1ccc2cc3n[se]nc3cc2c1"
  Label: "criterion not met"
- Compound: "Cc1ccc2nc3sc(=O)sc3nc2c1"
  Label: "criterion met"

Problem: Form field: growth inhibition at least 90%? Entry: `Oc1c(Br)cc(Br)cc1Br`
Result: criterion not met

Problem: Form field: growth inhibition at least 90%? Entry: CC1=C[C@H]2O[C@@H]3C[C@H]4OC(=O)/C=C\C=C\C(C(C)O)OCC(O)C(C)CC(=O)OC[C@@]2(C[C@@H]1O)[C@]4(C)[C@@]31CO1 (stereo partly specified)
Result: criterion met

Problem: Form field: growth inhibition at least 90%? Entry: `O=P(CCCCP(=O)(c1ccccc1)c1ccccc1)(c1ccccc1)c1ccccc1.[Cl][Sn]([Cl])([c]1ccccc1)[c]1ccccc1`
Result: criterion met

Problem: Form field: growth inhibition at least 90%? Entry: O=C1OC2C(O1)C1(Cl)C(Cl)=C(Cl)C2(Cl)C1(Cl)Cl (stereo unspecified)
Result: criterion not met

Problem: Form field: growth inhibition at least 90%? Entry: `O=C(COc1ccc(Cl)cc1Cl)NO`
Result: criterion not met

Problem: Form field: growth inhibition at least 90%? Entry: `CCNCC(=O)O[C@]1(CC)C(=O)OCc2c1cc1n(c2=O)Cc2cc3ccccc3nc2-1`
Result: criterion not met

Problem: Form field: growth inhibition at least 90%? Entry: `Nc1nc(-c2ccccc2)c(-c2ccccc2)[se]1`
Result: criterion not met

* * *

Known growth inhibition of a selection of molecules
- Method: NCI Yeast Anticancer Drug Screen. Data for the rad50 strain (AID 155);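 also: 0% = growth of vehicle-only cultures of the same strain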
- Condition parameters: S. cerevisiae rad50 strain growth inhibition; at 50.0 µM; hits give high values
The panel holds about 79,000 compounds, 15% with a hit somewhere; the sample as a whole holds those more often.
Use % as the unit, but write only the number.

Observe how each entry below is paired with its result.
- Molecule: "CC(=O)Nc1cccc([As+](C)(c2cccc(NC(C)=O)c2)c2cccc(NC(C)=O)c2)c1"
  Observed value: 4.35
- Molecule: "CCN(CC)CCBr"
  Observed value: 70.2
- Molecule: "CN1CSC(=S)N(C)C1"
  Observed value: 97.3

Problem: Provide growth inhibition value for the following molecule: `COc1cc(Br)cc(/C=C(\C)[N+](=O)[O-])c1O`
Result: 99.5

Problem: Provide growth inhibition value for the following molecule: `N#CC(=C=N)N=C(F)C(C#N)=C(C#N)C#N`
Result: 87

Problem: Provide growth inhibition value for the following molecule: CC(C)(C)OC(=O)NC(CSC(c1ccccc1)(c1ccccc1)c1cccs1)C(=O)O (stereo unspecified)
Result: 95.7

* * *

- Method: NCI Yeast Anticancer Drug Screen. Data for the sgs1 mgt1 strain (AID 161);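 also: 0% = growth of cultures given vehicle only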
- Condition parameters: S. cerevisiae sgs1 mgt1 strain, at 50.0 µM (retest, dose inferred, filed as 5.0)
- Experimental: Growth inhibition of yeast strains with defined genetic alterations is measured as a screen for potential anti-cancer activity. Selected strains with alterations in DNA damage repair or cell cycle control were exposed to compounds and growth inhibition was measured relative to vehicle treated controls. The strain used in this assay is sgs1 mgt1
The panel holds about 79,000 compounds, 15% with a hit somewhere; the sample as a whole holds those more often. The source made the active and inactive calls. No stated cut-off is given here; in the data, active means growth inhibition above about 70%; inactive means the rest.
Hi! Could you answer with just one of these? 1 (yes) (active), 0 (no) (inactive)

Use these answered entries as a reference point.
- Molecule: "O=S(=O)(c1ccccc1)N1C2C3CCC(CC3)C21 (stereo unspecified)"
  Label: "0 (no)"
- Molecule: "CC(C)COP(=O)(OCC(C)C)C(=O)Nc1ccc(Cl)cc1"
  Label: "1 (yes)"
- Molecule: "COC1OC(COC(C)=O)C(OC(C)=O)C(OC(C)=O)[CH]1[Hg][I] (stereo unspecified)"
  Label: "1 (yes)"
- Molecule: "Nc1nc(N)c(-c2ccc(Cl)c(Cl)c2)c(CCc2ccc(CNC(=O)Nc3ccc(S(=O)(=O)F)cc3)cc2)n1"
  Label: "0 (no)"
- Molecule: "CSCCl"
  Label: "1 (yes)"

Attention now turns to another entry.
Problem: Record lookup: outcome of this test for `N#C[S-].[Ce+3].c1ccc(-c2ccccn2)nc1.c1ccc(-c2ccccn2)nc1.c1ccc(-c2ccccn2)nc1` ?
Result: 1 (yes)

* * *

- Method: NCI Yeast Anticancer Drug Screen. Data for the sgs1 mgt1 strain (AID 161);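 also: 0% = growth of cultures given vehicle only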
- Condition parameters: S. cerevisiae sgs1 mgt1 strain, at 50.0 µM, hits give high values
This is part of a sample that, as a whole, favours compounds with a hit. Of some 79,000 tested, about 15% had one in any assay.
Assign YES to entries whose growth inhibition meets or exceeds 90%; assign NO to the rest.

Use these answered entries as a reference point.
- Molecular string: "S=C(S)N1CCOCC1"
  Label: "NO"
- Molecular string: "CN1CSC(=S)N(C)C1"
  Label: "YES"
- Molecular string: "[Ni+2].[O-][Cl+3]([O-])([O-])O.c1ccc([PH+](CC[PH+](c2ccccc2)c2ccccc2)c2ccccc2)cc1.c1ccc([PH+](CC[PH+](c2ccccc2)c2ccccc2)c2ccccc2)cc1"
  Label: "NO"

Attention now turns to another entry.
Problem: Form field: growth inhibition at least 90%? Entry: `CSc1ccc2c(c1)c(CCN)c(C)n2Cc1ccccc1Cl`
Result: YES

* * *

- Method: NCI Yeast Anticancer Drug Screen. Data for the sgs1 strain (AID 173);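 also: 0% = growth of vehicle-only control cultures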
- Condition parameters: S. cerevisiae sgs1 mutant, at 1.2 µM, hits give high values
Compounds without any hit were thinned out: in the full panel of roughly 79,000, 15% have a hit.
Known growth inhibition of a selection of molecules
Use % as the unit, but write only the number.

- Molecule: "Cn1cc(NC(=O)c2cc(NC(=O)CN=C(N)N)cn2C)cc1C(=O)NCCC(=N)N"
  Units label: "%"
  growth inhibition: 4
- Molecule: "CC1CC(C)CC(C)C(O)/C(C#N)=C/C=C/CC(C2CCCC2C(=O)O)OC(=O)CC(O)C(C)C1 (centres undefined)"
  Units label: "%"
  growth inhibition: 95
- Molecule: "S=C1NC2(CCCCC2)NC12CCCCC2"
  Units label: "%"
  growth inhibition: -1
- Molecule: "O=C(O)CCCc1cc(I)c(N(CCCl)CCCl)c(I)c1"
  Units label: "%"
  growth inhibition: -40
- Molecule: "O=C1OC2C(O1)C1(Cl)C(Cl)=C(Cl)C2(Cl)C1(Cl)Cl (centres undefined)"
  Units label: "%"
  growth inhibition: -1

Problem: Provide growth inhibition value for the following molecule: CC1=C(O)C(=O)C=C2C1=CC=C1[C@@]2(C)CCC2(C)[C@@H]3C[C@@H](C)C(=O)C[C@]3(C)CC[C@]12C (some centres undefined)
Result: 17

Problem: Provide growth inhibition value for the following molecule: COc1cccc2c1C(=O)c1c(O)c3c(c(O)c1C2=O)C[C@@](O)(C(C)=O)C[C@@H]3OC1CC(N)C(OC2CC(O)C(O)C(C)O2)C(C)O1 (some centres undefined)
Result: -2

Problem: Provide growth inhibition value for the following molecule: COC1C(O)C(C)OC(OC2C(Oc3cccc4c(O)c5c(=O)oc6ccc(C)c7c(=O)oc(c34)c5c67)OC(C)C(O)C2O)C1O (centres undefined)
Result: 1

Problem: Provide growth inhibition value for the following molecule: CC1(Cl)CC(C)(/C=C/Cl)C(Cl)CC1Cl (centres undefined)
Result: 4

Data credit: PubChem BioAssay (NCI)
